// data source = ChEMBL document CHEMBL1811822

test protocol: Inhibition of protease activity of full-length HCV genotype 1a NS3 protease by FRET assay
property name: Ki (nM)

{"columns": ["smiles", "Ki / nM"],
 "data": [
  ["CCC[C@@H]1NC(=O)[C@@H](NC(=O)[C@@H](NC(=O)OC(C)(C)C)C(C)(C)C)c2ccc(Oc3cc(-c4ccccc4)nc4cc(OC)ccc34)c(c2)/C=C\\CC2(CC2)S(=O)(=O)NC1=O", 110]
]}

P = CCC[C@@H]1NC(=O)[C@@H](NC(=O)[C@@H](NC(=O)OC(C)(C)C)C(C)(C)C)c2ccc(Oc3cc(-c4ccccc4)nc4cc(OC)ccc34)c(c2)/C=C/c2ccccc2S(=O)(=O)NC1=O
Q = CCC[C@@H]1NC(=O)[C@@H](NC(=O)[C@@H](NC(=O)OC(C)(C)C)C(C)(C)C)c2ccc(Oc3cc(-c4ccccc4)nc4cc(OC)ccc34)c(c2)CCCCCCS(=O)(=O)NC1=O
R = CCC[C@@H]1NC(=O)[C@@H](NC(=O)[C@@H](NC(=O)OC(C)(C)C)C(C)(C)C)c2ccc(Oc3cc(-c4ccccc4)nc4cc(OC)ccc34)c(c2)/C=C/CCCS(=O)(=O)NC1=O
Sort ascending by Ki. Provide the ranking by listing each label in its place in the requested order.
P, R, Q
